Measured TGI, listed per entry for reference.
Tested on: DU-145 prostate
Test: NCI tumour cell line growth inhibition, 48 h

{"smi": "COc1ccc(N=CN(C)C)c(C)c1", "TGI": "82 µM"}
{"smi": "CCOC(=O)c1ccc(Nc2nc3cc(C(F)(F)F)ccc3nc2C(=O)OCC)cc1", "TGI": "> 100 µM"}
{"smi": "Cc1c(-c2nnc(-c3cc(Cl)c(Cl)cc3Cl)o2)nnn1-c1ccnc2c(C(F)(F)F)cccc12", "TGI": "41.6 µM"}
{"smi": "O=C(O)c1ccccc1Nc1ccc2nnc(-c3ccncc3)n2n1", "TGI": "25.6 µM"}
{"smi": "O=C(Nc1ccc(Cl)cc1)NS(=O)(=O)c1c(-c2ccccc2)oc2ccccc2c1=O", "TGI": "> 100 µM"}
{"smi": "CCOCCOC[C@H]1CCCN(c2ccnc3sc(C(N)=O)c(N)c23)C1", "TGI": "> 100 µM"}
{"smi": "CCOC(=O)c1c(CN2CCCC2)n(-c2ccccc2)c2cc(Br)c(OC)cc12", "TGI": "69.2 µM"}
{"smi": "NC(=O)OCc1c(-c2ccccc2)nn(-c2ccccc2)c1COC(N)=O", "TGI": "> 100 µM"}
{"smi": "O=[N+]([O-])c1ccc(C(=Nc2ccccc2)SSC(=Nc2ccccc2)c2ccc([N+](=O)[O-])o2)o1", "TGI": "3.6 µM"}
{"smi": "N#CCc1nc(-c2cc3c(ccc4ccccc43)oc2=O)cs1", "TGI": "> 100 µM"}
